Measured log10 solubility kinetic, listed per entry for reference.
Setup Conditions: buffer; pH 7.4; 200.0 µM
Hey, these are logged values: log10 of solubility kinetic, mg/mL being the unit before logging.

COc1ccccc1C(=O)NCCSCc1ccccc1Cl; -1.82
CCNc1nc2c(c(=O)[nH]c(=O)n2C)n1CCCc1ccccc1; -1.68
CC(=O)Nc1cccc(NC(=S)Nc2cccc(Cl)c2C)c1; -1.35
CC(NC(=O)C12CC3CC(CC(C3)C1)C2)c1ccc(F)cc1 (centres undefined); -2.85
CCn1c(=O)c(C(=O)CC#N)c(N)n(Cc2ccccc2)c1=O; -2.39
COC(=O)c1ccc(NC(=O)c2cccc(NC(=O)c3ccccc3)c2)cc1; -3.05

Supply log10 solubility kinetic value. Item: COc1ccc(C2CN(C)CC2C(=O)c2ccc(C)cc2)cc1Cl (centres undefined)
-1.40

Supply log10 solubility kinetic value. Item: `Cc1cccc(OCCC(=O)Nc2ccc(C)c(S(=O)(=O)N3CCOCC3)c2)c1`
-1.67

Supply log10 solubility kinetic value. Item: `Cl.O=c1cc[nH]c2c1ccc1c(=O)cc[nH]c12`
-1.46

Supply log10 solubility kinetic value. Item: `Cc1cc(NC(=O)c2ccc([N+](=O)[O-])cc2Cl)no1`
-1.79

Supply log10 solubility kinetic value. Item: `Cc1cc(C(C)(C)C)cc(C)c1COC(=O)c1cccnc1`
-2.77
